Target: Botulinum neurotoxin type A (Clostridium botulinum (strain Hall / ATCC 3502 / NCTC 13319 / Type A))
Sequence (P0DPI1 2-448 limits assumed): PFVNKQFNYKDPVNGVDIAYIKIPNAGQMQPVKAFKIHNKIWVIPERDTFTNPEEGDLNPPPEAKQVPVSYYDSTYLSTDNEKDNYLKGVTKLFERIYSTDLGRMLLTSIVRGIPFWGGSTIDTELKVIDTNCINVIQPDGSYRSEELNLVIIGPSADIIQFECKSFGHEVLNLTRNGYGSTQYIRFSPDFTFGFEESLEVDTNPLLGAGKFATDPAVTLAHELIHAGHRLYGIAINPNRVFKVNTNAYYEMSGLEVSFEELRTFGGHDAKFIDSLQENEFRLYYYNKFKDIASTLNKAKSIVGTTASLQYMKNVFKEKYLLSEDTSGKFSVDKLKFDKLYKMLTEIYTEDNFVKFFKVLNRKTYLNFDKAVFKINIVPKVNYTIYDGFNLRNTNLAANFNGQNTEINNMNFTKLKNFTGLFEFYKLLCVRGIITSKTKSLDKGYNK
Test: Inhibition of BoNT/A light chain metalloprotease activity
Where a SMILES comes first, the peptide text is derived from it. The star is where a group is joined. Propanoyl(2S-SH,3-Ph) = O=C([C@@H](S)Cc1ccccc1)*; X1 = O=C([C@H](S)Cc1ccccc1)*
Please note: Ki exactly at 6 µM is not fulfilled. Only values below 6 µM get fulfilled.

compound	label.value
CSCC[C@H](NC(=O)[C@H](CCCCN)NC(=O)[C@@H](NC(=O)[C@H](C)NC(=O)[C@H](CCCCN)NC(=O)[C@@H](S)Cc1ccccc1)[C@@H](C)O)C(=O)N[C@@H](CC(C)C)C(=O)O ({Propanoyl(2S-SH,3-Ph)}-KATKML-OH)	not fulfilled
C[C@H](NC(=O)[C@H](CCCNC(=N)N)NC(=O)[C@@H](S)Cc1ccccc1)C(=O)N[C@H](C(=O)N[C@@H](CCCCN)C(=O)O)[C@@H](C)O ({Propanoyl(2S-SH,3-Ph)}-RATK-OH)	fulfilled
CSCC[C@H](NC(=O)[C@H](CCCCN)NC(=O)[C@@H](NC(=O)[C@H](C)NC(=O)[C@H](CCCNC(=N)N)NC(=O)[C@H](S)Cc1ccccc1)[C@@H](C)O)C(=O)N[C@@H](CC(C)C)C(=O)O (X1-RATKML-OH)	not fulfilled
CSCC[C@H](NC(=O)[C@H](C)NC(=O)[C@@H](NC(=O)[C@H](C)NC(=O)[C@H](CCCN=C(N)N)NC(=O)[C@@H](S)Cc1ccccc1)[C@@H](C)O)C(=O)N[C@@H](CC(C)C)C(=O)O ({Propanoyl(2S-SH,3-Ph)}-RATAML-OH)	fulfilled
N=C(N)N/N=C/c1ccc(-c2cc3ccc(/C=N/NC(=N)N)cc3s2)cc1	fulfilled
NC(N)=NCCC[C@H](NC(=O)[C@@H](S)Cc1ccccc1)C(=O)O	not fulfilled
